# measured_on: T1, human CD3 expressed on cells (Jurkat cells; human primary T cells) (human, UniProt P07766 23-207; P04234 22-171; P09693 23-182)
# T1 construct: whole, on cells
# protocol_text: flow cytometry, 25 nM, human primary T cells

| binder | Binding (FOI) |
| --- | --- |
| mAb 176 (antibody, V domains shown, VH/VL only) VH: EVELVESGGGLVQPGRSLRLSCAASGFKFDDYTMHWVRLPPGKGLEWVSGISWNSGTIDYGDSVKGRFTISRDNAKNSLYLQMNSLRVEDTALYYCAKDTSGYGHYFYYYMDVWGKGTTVTVSS VL: DIQMTQSPSSLSASIGDRVSITCRTSQIINNYLNWYQQKPGKAPKVLIYSASSLQSGVPSRFSGSGSGTDFTLTINSLQPEDFATYYCQQSYNFPITFGQGTRLELK | 147 FOI |
| mAb 276 (antibody, V domains shown, VH/VL only) VH: EVQLVESGGGLVQPGGSLRLSCAASGIPFSTYSMNWVRQAPGKGLEWVSYISGSSRTIYYADSVKGRFTISRDNAKKLLFLQMNSLRDEDTAVYYCAREGDYYDSSGWAYWGQGTLVTVSS VL: DIQMTQSPSSLSASVGDRVTITCRASQNIYKYLNWYEQKPGRAPKLLIYTTSNLQSGVPSRFSGSGSGTAFTLIISSLQPEDFATYYCQQSYGSPYTFGQGTKLEIK | 149 FOI |
